# Test system: MOLT-4 leukemia
# protocol-details: NCI-60 one-dose screen, 48 h (100 = growth as untreated, 0 = no growth, -100 = all killed)
# reported-conditions: 10 µM unless noted
This is part of a sample that, as a whole, favours compounds with a hit. Of some 83,000 tested, about 20% had one in any assay.
Could you mark each record 1 (yes) if its growth falls strictly under 80%, and 0 (no) if it equals or exceeds it?

# compound, category-label
measured = [
    ("O=[N+]([O-])c1ccc(/C=N\\Nc2ccccc2)cc1", "0 (no)"),
    ("COC(=O)[C@]12CC[C@@H](C(=O)/C=C/c3cccnc3)[C@@H]1[C@H]1CC[C@@H]3[C@@]4(C)C/C(=C/c5cccnc5)C(=O)C(C)(C)[C@@H]4CC[C@@]3(C)[C@]1(C)CC2", "1 (yes)"),
    ("COc1cc2nc(Cl)nc(Nc3cccc(C(=O)/C=C/c4ccccc4)c3)c2cc1OC", "1 (yes)"),
    ("NC1=C(C/C(N)=N\\O)C(c2ccccc2Cl)c2c(ccc3ccccc23)O1 (stereo not given)", "1 (yes)"),
    ("c1csc(-c2nc(-c3cc4ccccc4c(N4CCOCC4)n3)cs2)c1", "0 (no)"),
    ("COc1ccc(C2C(C#N)=C(N)Oc3c2sc2c(F)cccc32)cc1 (stereo not given)", "1 (yes)"),
    ("Cn1c2ccccc2c2c3c(c4c5cccnc5[nH]c4c21)C(=O)N(O)C3=O", "1 (yes)"),
    ("COc1ccc(/C=C2\\N=C(c3ccccc3)N(c3cc(OC)c(OC)cc3C(=O)N3N=C(C)CC3=O)C2=O)cc1", "1 (yes)"),
    ("Cn1cc(-c2csc(-c3cn(CCN)c4ccc(Br)cc34)n2)c2cccnc21", "1 (yes)"),
    ("NC(=O)[C@@H]1CC2CCC1C2 (stereo not given in full)", "0 (no)"),
]

====

# System: HOP-92 NSCLC
# protocol-details: NCI-60 one-dose screen, 48 h
# reported-conditions: 10 µM unless noted
# Protocol: Growth inhibition of the HOP-92 human Non-Small Cell Lung tumor cell line is measured as a screen for anti-cancer activity. Cells are grown in 96 well plates and exposed to the test compound for 48 hours. Compounds are tested at a single concentration, which is 10^-5 M for most compounds. The reported endpoint is percent growth (GI% or GIPRCNT), where numbers from 0 - 100% represent growth inhibition, and numbers from -100% - 0 represent cell death. […]
This is part of a sample that, as a whole, favours compounds with a hit. Of some 83,000 tested, about 20% had one in any assay. Active and inactive are the calls of the source. Rule for the calls: active = growth percent below 10; inactive = the rest.
Classes used: T = active, F = inactive

# compound, tested-on, category-label
data = [
    ("Cc1ccc(-c2nc3ccc(Cl)cc3c(=O)n2N2C(=O)CSC2c2ccccc2Cl)cc1 (stereo not drawn)", "HOP-92 NSCLC", "T"),
    ("CC/C=C\\C[C@H]1CC=C2C(=O)C=C[C@@H]2CC=CCCCC(=O)O[C@@H](CCCCC)CC=C2C(=O)C=C[C@@H]2CC=CCCCC(=O)O[C@@H](CCCCC)CC=C2C(=O)C=C[C@@H]2CC=CCCCC(=O)O[C@@H](CCCCC)CC=C2C(=O)C=C[C@@H]2CC=CCCCC(=O)O1", "HOP-92 NSCLC", "T"),
    ("CC1(C)C(=O)/C(=C\\c2ccccn2)C[C@]2(C)[C@H]3CC[C@@H]4[C@@H](C(=O)/C=C/c5ccccn5)CC[C@@]4(C)[C@]3(C)CC[C@@H]12", "HOP-92 NSCLC", "T"),
    ("Cc1cc(Nc2ccc(F)cc2)nc(N2CCN(c3ccnc4cc(Cl)ccc34)CC2)n1", "HOP-92 NSCLC", "T"),
    ("O=C(NC1=CC(=O)c2ccccc2C1=O)c1ccccc1", "HOP-92 NSCLC", "T"),
    ("CN1CCN(CC#CCn2c3c(c4ccccc42)C[C@]2(C)[C@H]4CC[C@@H]5[C@H]6[C@H]7OC(=O)[C@@]6(CCC7(C)C)CC[C@@]5(C)[C@]4(C)CC[C@H]2C3(C)C)CC1", "HOP-92 NSCLC", "F"),
    ("Cn1c2ccccc2c2c3c(c4c5cccnc5[nH]c4c21)C(=O)N(O)C3=O", "HOP-92 NSCLC", "F"),
    ("Cc1cc2nc3c4cc(N)ccc4n(CCN(C)C)c3nc2cc1C", "HOP-92 NSCLC", "F"),
]
